Property: Kd; scope: individual binders
- MEASUREMENT_TARGET: T1, recombinant human PD-1-his (Sino biological, #10377-H08H) (human, UniProt Q15116 25-167)
- T1 construct: Bought protein; also called Human PD-1-his protein; not shown: his tag
- T1 sequence (Q15116 25-167 limits assumed): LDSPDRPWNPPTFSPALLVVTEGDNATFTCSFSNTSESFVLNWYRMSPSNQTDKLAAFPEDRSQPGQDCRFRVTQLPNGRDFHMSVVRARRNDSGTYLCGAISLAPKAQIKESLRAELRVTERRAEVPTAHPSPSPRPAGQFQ
- ASSAY_PROCEDURE: SPR (Biacore), antibody captured, human PD-1-his flowed
API: value field is a number in nM; no unit string.

- BINDER: "huD2H3-V14 (antibody, human IgG1, kappa, V domains shown, Humanized D2H3, human IgG1/kappa) VH: EVQLVQSGAEVKKPGSSVKVSCKASGYTFTNYWMHWVRQAPGQGLEWMGAIFPRNSETNYNQKFKARVTITADESTSTAYMELSSLRSEDTAVYYCTRNRYGLDYWGQGTLVTVSS VL: DIVMTQSPDSLAVSLGERATINCRASESVSLHGTRLMHWYQQKPGQPPKLLIYLGSNLESGVPDRFSGSGSGTDFTLTISSLQAEDVAVYYCQQSIEDPWTFGQGTKLEIKR"
  PARAMETER_MEASURED: "Kd"
  OBSERVED_VALUE: 0.308

The value of Kd measured for the binder huD2A4-V6 (antibody, human IgG1, kappa, V domains shown, Humanized D2A4, human IgG1/kappa) VH: EVQLVESGGGLVQPGGSLRLSCAASGFTFSSYTMSWVRQAPGKGLEWVSTISGGGSNTYYPDSVKGRFTISRDNSKNTLYLQMNSLRAEDTAVYYCARQAFYSNYWYFDVWGKGTTVTVSS VL: DIQMTQSPSSVSASVGDRVTITCLASQTIGTWLAWYQQKPGKAPKLLIYAATSLADGVPSRFSGSGSGTDFTLTISSLQPEDFATYYCQQVSSIPWTFGGGTKVEIKR turned out to be 3.06

Lab note: measured Kd of mouse anti-PD-1 monoclonal antibody D2A4 (antibody, V domains shown, Mouse antibody purified from a hybridoma; also called Mouse D2A4; mouse D2A4) VH: EVKLVESGGGLVKPGGSLKLSCAASGFTFSSYTMSWVRQTPAKRLEWVATISGGGSNTYYPDSVKGRFTISRDNARNTLYLQMSSLRSEDTAMYYCARQAFYSNYWYFDVWGAGTTVTVSS VL: DIQMTQSPASQSASLGESVTITCLASQTIGTWLAWYQQTPGKSPQLLIYAATSLADGVPSRFSGSGSGTKFSFKISSLQAEDFASYYCQQVSSIPWTFGGGTKLEIR was 2.55

Sure, the documented Kd for chimeric D2H3 antibody (antibody, human IgG1, kappa, V domains shown, Mouse variable domains cloned in frame to human IgG1 and kappa constant regions; also called chD2H3) VH: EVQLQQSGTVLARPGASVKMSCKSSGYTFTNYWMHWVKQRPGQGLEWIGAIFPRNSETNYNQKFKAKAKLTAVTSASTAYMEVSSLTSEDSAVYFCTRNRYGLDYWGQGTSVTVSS VL: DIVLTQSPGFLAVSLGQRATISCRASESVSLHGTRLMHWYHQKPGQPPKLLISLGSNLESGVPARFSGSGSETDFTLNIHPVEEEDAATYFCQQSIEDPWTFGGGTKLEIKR is 0.441

The value of Kd measured for the binder mouse anti-PD-1 monoclonal antibody D2H3 (antibody, V domains shown, Mouse antibody purified from a hybridoma; also called Mouse D2H3; mouse D2H3) VH: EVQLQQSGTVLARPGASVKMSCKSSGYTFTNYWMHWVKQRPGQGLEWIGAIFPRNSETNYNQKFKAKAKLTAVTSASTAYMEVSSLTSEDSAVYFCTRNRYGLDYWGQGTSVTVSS VL: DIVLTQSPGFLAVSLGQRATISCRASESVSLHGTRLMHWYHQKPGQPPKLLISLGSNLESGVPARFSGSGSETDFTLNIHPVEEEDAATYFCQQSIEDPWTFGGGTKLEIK turned out to be 0.373
